# System: HeLa Kyoto
# METHOD SUMMARY: melting temperature (median over replicates), in situ; higher = more thermally stable
# RECORDED CONDITIONS: cell cycle stage: G1/S
PROPERTY MEASURED: melting temperature (°C)
Report only the number, with the unit °C understood.

SEQUENCE DATA	UNITS SYMBOL	melting temperature
MRAVLAREMDGRRVLGRFWSGWRRGLGVRPVPEDAGFGTEARHQRQPRGSCQRSGPLGDQPFAGLLPKNLSREELVDALRAAVVDRKGPLVTLNKPQGLPVTGKPGELTLFSVLPELSQSLGLREQELQVVRASGKESSGLVLLSSCPQTASRLQKYFTHARRAQRPTATYCAVTDGIPAASEGKIQAALKLEHIDGVNLTVPVKAPSRKDILEGVKKTLSHFRVVATGSGCALVQLQPLTVFSSQLQVHMVLQLCPVLGDHMYSARVGTVLGQRFLLPAENNKPQRQVLDEALLRRLHLTPSQAAQLPLHLHLHRLLLPGTRARDTPVELLAPLPPYFSRTLQCLGLRLQ [RPUSD3]	°C	50.1
MAEEMESSLEASFSSSGAVSGASGFLPPARSRIFKIIVIGDSNVGKTCLTYRFCAGRFPDRTEATIGVDFRERAVEIDGERIKIQLWDTAGQERFRKSMVQHYYRNVHAVVFVYDMTNMASFHSLPSWIEECKQHLLANDIPRILVGNKCDLRSAIQVPTDLAQKFADTHSMPLFETSAKNPNDNDHVEAIFMTLAHKLKSHKPLMLSQPPDNGIILKPEPKPAMTCWC [RAB33B]	°C	54.3
MGGTTSTRRVTFEADENENITVVKGIRLSENVIDRMKESSPSGSKSQRYSGAYGASVSDEELKRRVAEELALEQAKKESEDQKRLKQAKELDRERAAANEQLTRAILRERICSEEERAKAKHLARQLEEKDRVLKKQDAFYKEQLARLEERSSEFYRVTTEQYQKAAEEVEAKFKRYESHPVCADLQAKILQCYRENTHQTLKCSALATQYMHCVNHAKQSMLEKGG [CHCHD3]	°C	54.6
MGGPRGAGWVAAGLLLGAGACYCIYRLTRGRRRGDRELGIRSSKSAGALEEGTSEGQLCGRSARPQTGGTWESQWSKTSQPEDLTDGSYDDVLNAEQLQKLLYLLESTEDPVIIERALITLGNNAAFSVNQAIIRELGGIPIVANKINHSNQSIKEKALNALNNLSVNVENQIKIKIYISQVCEDVFSGPLNSAVQLAGLTLLTNMTVTNDHQHMLHSYITDLFQVLLTGNGNTKVQVLKLLLNLSENPAMTEGLLRAQVDSSFLSLYDSHVAKEILLRVLTLFQNIKNCLKIEGHLAVQPTFTEGSLFFLLHGEECAQKIRALVDHHDAEVKEKVVTIIPKI [ARMC10]	°C	50.8
MPSSPLRVAVVCSSNQNRSMEAHNILSKRGFSVRSFGTGTHVKLPGPAPDKPNVYDFKTTYDQMYNDLLRKDKELYTQNGILHMLDRNKRIKPRPERFQNCKDLFDLILTCEERVYDQVVEDLNSREQETCQPVHVVNVDIQDNHEEATLGAFLICELCQCIQHTEDMENEIDELLQEFEEKSGRTFLHTVCFY [SSU72]	°C	48.1
MREYKVVVLGSGGVGKSALTVQFVTGTFIEKYDPTIEDFYRKEIEVDSSPSVLEILDTAGTEQFASMRDLYIKNGQGFILVYSLVNQQSFQDIKPMRDQIVRVKRYEKVPLILVGNKVDLEPEREVMSSEGRALAQEWGCPFMETSAKSKSMVDELFAEIVRQMNYSSLPEKQDQCCTTCVVQ [RAP2C]	°C	56.9

(Q) Form entry - test system: HeLa Kyoto; read-out: melting temperature; sequence: MADRDSGSEQGGAALGSGGSLGHPGSGSGSGGGGGGGGGGGGSGGGGGGAPGGLQHETQELASKRVDIQNKRFYLDVKQNAKGRFLKIAEVGAGGNKSRLTLSMSVAVEFRDYLGDFIEHYAQLGPSQPPDLAQAQDEPRRALKSEFLVRENRKYYMDLKENQRGRFLRIRQTVNRGPGLGSTQGQTIALPAQGLIEFRDALAKLIDDYGVEEEPAELPEGTSLTVDNKRFFFDVGSNKYGVFMRVSEVKPTYRNSITVPYKVWAKFGHTFCKYSEEMKKIQEKQREKRAACEQLHQQQQQQQEETAAATLLLQGEEEGEED [PURA];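 further: HeLa Kyoto cells synchronized by double thymidine or nocodazole block, proteins quantified by TMT10plex mass spectrometry, three independent biological replicates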
(A) 58

(Q) Can you handle MAGPAWISKVSRLLGAFHNPKQVTRGFTGGVQTVTLIPGDGIGPEISAAVMKIFDAAKAPIQWEERNVTAIQGPGGKWMIPSEAKESMDKNKMGLKGPLKTPIAAGHPSMNLLLRKTFDLYANVRPCVSIEGYKTPYTDVNIVTIRENTEGEYSGIEHVIVDGVVQSIKLITEGASKRIAEFAFEYARNNHRSNVTAVHKANIMRMSDGLFLQKCREVAESCKDIKFNEMYLDTVCLNMVQDPSQFDVLVMPNLYGDILSDLCAGLIGGLGVTPSGNIGANGVAIFESVHGTAPDIAGKDMANPTALLLSAVMMLRHMGLFDHAARIEAACFATIKDGKSLTKDLGGNAKCSDFTEEICRRVKDLD [IDH3A] next?
(A) 54.5

(Q) Can you handle MADAASQVLLGSGLTILSQPLMYVKVLIQVGYEPLPPTIGRNIFGRQVCQLPGLFSYAQHIASIDGRRGLFTGLTPRLCSGVLGTVVHGKVLQHYQESDKGEELGPGNVQKEVSSSFDHVIKETTREMIARSAATLITHPFHVITLRSMVQFIGRESKYCGLCDSIITIYREEGILGFFAGLVPRLLGDILSLWLCNSLAYLVNTYALDSGVSTMNEMKSYSQAVTGFFASMLTYPFVLVSNLMAVNNCGLAGGCPPYSPIYTSWIDCWCMLQKEGNMSRGNSLFFRKVPFGKTYCCDLKMLI [MTCH2] next?
(A) 56.6

(Q) Can you handle MPGSAAKGSELSERIESFVETLKRGGGPRSSEEMARETLGLLRQIITDHRWSNAGELMELIRREGRRMTAAQPSETTVGNMVRRVLKIIREEYGRLHGRSDESDQQESLHKLLTSGGLNEDFSFHYAQLQSNIIEAINELLVELEGTMENIAAQALEHIHSNEVIMTIGFSRTVEAFLKEAARKRKFHVIVAECAPFCQGHEMAVNLSKAGIETTVMTDAAIFAVMSRVNKVIIGTKTILANGALRAVTGTHTLALAAKHHSTPLIVCAPMFKLSPQFPNEEDSFHKFVAPEEVLPFTEGDILEKVSVHCPVFDYVPPELITLFISNIGGNAPSYIYRLMSELYHPDDHVL [EIF2B2] next?
(A) 51.4

These data points were gathered from the supplement of paper PMC5998384.
